System: Staphylococcus aureus
Experiment: Ratio of MBC for methicillin-susceptible Staphylococcus aureus ATCC 25923 to MIC for methicillin-susceptible Staphylococcus aureus ATCC 25923
Assay type: functional
reported_property: Ratio

Examples from the recorded data:
O=C(O)c1cn(C2CC2)c2cc(N3CCN(Cn4nc(-c5ccccc5O)n(Cc5ccc(Cl)cc5)c4=S)CC3)c(F)cc2c1=O :: <=4
O=C(O)c1cn(C2CC2)c2cc(N3CCN(Cn4nc(-c5ccccc5O)n(-c5ccccc5)c4=S)CC3)c(F)cc2c1=O :: <=4
COc1ccc(Cn2c(-c3ccc(O)cc3)nn(CN3CCN(c4cc5c(cc4F)c(=O)c(C(=O)O)cn5C4CC4)CC3)c2=S)cc1 :: <=4
COc1ccc(-n2c(-c3ccccc3O)nn(CN3CCN(c4cc5c(cc4F)c(=O)c(C(=O)O)cn5C4CC4)CC3)c2=S)cc1 :: <=4
O=C(O)c1cn(C2CC2)c2cc(N3CCN(Cn4nc(-c5ccccc5O)n(-c5ccc(F)cc5)c4=S)CC3)c(F)cc2c1=O :: <=4
COc1ccc(-n2c(-c3cccc(O)c3)nn(CN3CCN(c4cc5c(cc4F)c(=O)c(C(=O)O)cn5C4CC4)CC3)c2=S)cc1 :: <=4
O=C(O)c1cn(C2CC2)c2cc(N3CCN(Cn4nc(-c5ccc(O)cc5)n(Cc5ccccc5)c4=S)CC3)c(F)cc2c1=O :: <=4
O=C(O)c1cn(C2CC2)c2cc(N3CCN(Cn4nc(-c5cccc(O)c5)n(-c5ccccc5)c4=S)CC3)c(F)cc2c1=O :: <=4
O=C(O)c1cn(C2CC2)c2cc(N3CCN(Cn4nc(-c5cccc(O)c5)n(Cc5ccc(Cl)cc5)c4=S)CC3)c(F)cc2c1=O :: <=4
O=C(O)c1cn(C2CC2)c2cc(N3CCN(Cn4nc(-c5ccccc5O)n(Cc5ccc(F)cc5)c4=S)CC3)c(F)cc2c1=O :: <=4

// query Recorded Ratio of O=C(O)c1cn(C2CC2)c2cc(N3CCN(Cn4nc(-c5ccc(O)cc5)n(-c5ccccc5)c4=S)CC3)c(F)cc2c1=O , please.
// result <=4

// query Now this one: O=C(O)c1cn(C2CC2)c2cc(N3CCN(Cn4nc(-c5cccc(O)c5)n(Cc5ccccc5)c4=S)CC3)c(F)cc2c1=O
// result <=4

// query Now this one: O=C(O)c1cn(C2CC2)c2cc(N3CCN(Cn4nc(-c5cccc(O)c5)n(Cc5ccc(F)cc5)c4=S)CC3)c(F)cc2c1=O
// result <=4

// query Now this one: COc1ccc(-n2c(-c3ccc(O)cc3)nn(CN3CCN(c4cc5c(cc4F)c(=O)c(C(=O)O)cn5C4CC4)CC3)c2=S)cc1
// result <=4

// query Now this one: O=C(O)c1cn(C2CC2)c2cc(N3CCN(Cn4nc(-c5cccc(O)c5)n(-c5ccc(Cl)cc5)c4=S)CC3)c(F)cc2c1=O
// result <=4
